- conditionInfo: rats, s.c.; 95% confidence limits given
readoutLabel: ED50 (hot plate) (mg./kg.s.c.)
API: value field is a number in mg./kg.s.c.; no unit string.

Determine its reported ED50 (hot plate): CC(C)=CCN1CCC2(C)c3cc(O)ccc3CC1C2C (stereo not shown)
9.1

---

- conditionInfo: rats, s.c.; 95% confidence limits on the next line
- Description: ^++ D'Amour,D.E. and Smith,D.L.: J.Pharm.Expt.Ther. 72. 74 (1941)
readoutLabel: ED50 (tail flick test)
Write the figure, then the unit, nothing else.

compound="CCOC(=O)C1(c2ccccc2)CCN(C)CC1 [Petidine]" endpointresult="4.3 s.c. mg./kg."

Determine its reported ED50 (tail flick test): CN1CC[C@]23c4c5ccc(O)c4O[C@H]2[C@H](N=[N+]=[N-])CC[C@H]3[C@H]1C5 [Azidomorphine, 6-deoxy-6-azido-7,8-dihydroisomorphine]
0.012 s.c. mg./kg.

Determine its reported ED50 (tail flick test): CC(C)=CCN1CCC2(C)c3cc(O)ccc3CC1C2C (stereo not shown) [Pentazocine]
12 s.c. mg./kg.

Determine its reported ED50 (tail flick test): CN1CC[C@]23c4c5ccc(O)c4O[C@H]2[C@H](N=[N+]=[N-])CC[C@@]3(O)[C@H]1C5 [Compound "A"]
0.029 s.c. mg./kg.

---

- assayExplanation: in vivo
- conditionInfo: rat, sc
Reported LD50 values for a set of compounds
API: value field is a number in mg/kg; no unit string.

compound="CN1CC[C@]23c4c5ccc(O)c4O[C@H]2[C@H](N=[N+]=[N-])CC[C@@]3(O)[C@H]1C5 [Compound \"A\"]" readoutlabel=LD50 endpointresult=200

Determine its reported LD50: CCOC(=O)C1(c2ccccc2)CCN(C)CC1 [Petidine]
280

Determine its reported LD50: CN1CC[C@]23c4c5ccc(O)c4O[C@H]2[C@H](N=[N+]=[N-])CC[C@H]3[C@H]1C5 [Azidomorphine, 6-deoxy-6-azido-7,8-dihydroisomorphine]
13

Determine its reported LD50: CC(C)=CCN1CCC2(C)c3cc(O)ccc3CC1C2C (centres unmarked) [Pentazocine]
280

Determine its reported LD50: CCC(=O)C(CC(C)N(C)C)(c1ccccc1)c1ccccc1 (centres unmarked) [Methadone]
28

---

- System: citric acid aerosol induced cough
- assayExplanation: animal or person
- Format: in vivo, Wistar rats
- conditionInfo: rats, s.c.
Reported Ratio codeine/drug (AtD50) values for a set of compounds
The answer should be a number; do not append a unit.

Solved entries (count: 3):
compound=CN1CC[C@]23c4c5ccc(O)c4O[C@H]2[C@H](N=[N+]=[N-])CC[C@@]3(O)[C@H]1C5 endpointresult=904.76
compound=COc1ccc2c3c1O[C@H]1[C@H](N=[N+]=[N-])CC[C@H]4[C@@H](C2)N(C)CC[C@@]341 endpointresult=12.10
compound="COc1ccc2c3c1O[C@H]1C(N=[N+]=[N-])CC[C@@]4(O)[C@@H](C2)N(C)CC[C@]314 (stereo partly shown)" endpointresult=23.17

Determine its reported Ratio codeine/drug (AtD50): CN1CC[C@]23c4c5ccc(O)c4O[C@H]2[C@H](N=[N+]=[N-])CC[C@H]3[C@H]1C5 [Azidomorphine, 6-deoxy-6-azido-7,8-dihydroisomorphine]
558.82

---

Reported ED50 (hot plate) values for a set of compounds
- conditionInfo: rats, s.c.; 95% confidence limits given
API: value field is a number in mg./kg.s.c.; no unit string.

compound=CCOC(=O)C1(c2ccccc2)CCN(C)CC1 readoutlabel="ED50 (hot plate)" endpointresult=4.9
compound="CN1CC[C@]23c4c5ccc(O)c4O[C@H]2[C@H](N=[N+]=[N-])CC[C@H]3[C@H]1C5 [Azidomorphine, 6-deoxy-6-azido-7,8-dihydroisomorphine]" readoutlabel="ED50 (hot plate)" endpointresult=0.016

Let us move to another entry and its ED50 (hot plate).
Determine its reported ED50 (hot plate): CN1CC[C@]23c4c5ccc(O)c4O[C@H]2[C@H](N=[N+]=[N-])CC[C@@]3(O)[C@H]1C5
0.012
